# target_under_test: Solute carrier organic anion transporter family member 1B1 (Homo sapiens)
# Sequence (Q9Y6L6 whole entry): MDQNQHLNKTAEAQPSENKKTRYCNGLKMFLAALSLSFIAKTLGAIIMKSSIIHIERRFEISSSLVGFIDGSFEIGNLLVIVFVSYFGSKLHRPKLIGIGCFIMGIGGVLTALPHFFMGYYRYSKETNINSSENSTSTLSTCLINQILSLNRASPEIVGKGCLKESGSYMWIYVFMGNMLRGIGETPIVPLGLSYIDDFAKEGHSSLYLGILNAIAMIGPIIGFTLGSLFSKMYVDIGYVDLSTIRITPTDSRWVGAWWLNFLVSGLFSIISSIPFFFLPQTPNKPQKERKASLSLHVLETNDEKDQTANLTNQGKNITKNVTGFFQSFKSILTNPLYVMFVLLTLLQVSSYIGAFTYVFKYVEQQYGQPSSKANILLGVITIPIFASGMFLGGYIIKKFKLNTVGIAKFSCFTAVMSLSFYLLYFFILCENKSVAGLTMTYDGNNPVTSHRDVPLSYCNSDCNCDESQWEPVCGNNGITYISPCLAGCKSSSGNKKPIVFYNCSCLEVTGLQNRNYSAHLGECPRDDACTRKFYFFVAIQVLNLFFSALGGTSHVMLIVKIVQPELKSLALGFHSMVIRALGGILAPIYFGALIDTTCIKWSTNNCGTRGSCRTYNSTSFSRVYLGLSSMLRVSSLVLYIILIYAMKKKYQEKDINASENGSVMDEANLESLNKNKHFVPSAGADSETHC
# condition_parameters: chinese hamster, cho, 10 µM
Entry flag: fulfilled if residual activity reaches 90%; not fulfilled if it does not.

| compound | target_under_test | discrete_label |
| --- | --- | --- |
| CCCCCCCCCCCCCCCC(=O)OC/C=C(C)/C=C/C=C(C)/C=C/C1=C(C)CCCC1(C)C [VITAMIN A PALMITATE] | Solute carrier organic anion transporter family member 1B1 (Homo sapiens) | not fulfilled |
| CC(=O)O[C@H]1CC[C@@]2(C)[C@H](CC[C@@H]3[C@@H]2CC[C@]2(C)[C@@H](C4=CC(=O)OC4)[C@@H](OC(C)=O)C[C@]32O)C1 [GITOXIGENIN DIACETATE] | Solute carrier organic anion transporter family member 1B1 (Homo sapiens) | fulfilled |
| NC(=O)NC1NC(=O)NC1=O (stereo not given) [ALLANTOIN] | Solute carrier organic anion transporter family member 1B1 (Homo sapiens) | not fulfilled |

Now for another entry.
Req: API: above_or_equal(metric=residual activity, cutoff=90%) for item CSCCC(NC=O)C(=O)NC(C)C(=O)O (stereo not given) [N-FORMYLMETHIONYLALANINE]
Resp: fulfilled
